Source listed as paper PMC3562352.

Measured on: T1, MntR wild-type (Bacillus subtilis, UniProt P54512 1-142)
T1 sequence: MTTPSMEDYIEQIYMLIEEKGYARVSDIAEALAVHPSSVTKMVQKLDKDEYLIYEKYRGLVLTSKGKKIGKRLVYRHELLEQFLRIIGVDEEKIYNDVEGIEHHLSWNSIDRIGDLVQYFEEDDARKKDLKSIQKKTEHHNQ
Protocol notes: fluorescence anisotropy
Property measured: Kd
Form entry: enter the amount, then its unit.

Lookup: Consider the binder mntH operator 21 bp (dsDNA) DNA 1: GAGTTTCCTTAAGGCAAATTG DNA 2: CAATTTGCCTTAAGGAAACTC . State its measured Kd.
Found: 5.6 nM
